These measurements were taken from ChEMBL document CHEMBL5120749.

# Assay system: Estrogen receptor beta (Homo sapiens)
# Sequence (Q92731 whole entry): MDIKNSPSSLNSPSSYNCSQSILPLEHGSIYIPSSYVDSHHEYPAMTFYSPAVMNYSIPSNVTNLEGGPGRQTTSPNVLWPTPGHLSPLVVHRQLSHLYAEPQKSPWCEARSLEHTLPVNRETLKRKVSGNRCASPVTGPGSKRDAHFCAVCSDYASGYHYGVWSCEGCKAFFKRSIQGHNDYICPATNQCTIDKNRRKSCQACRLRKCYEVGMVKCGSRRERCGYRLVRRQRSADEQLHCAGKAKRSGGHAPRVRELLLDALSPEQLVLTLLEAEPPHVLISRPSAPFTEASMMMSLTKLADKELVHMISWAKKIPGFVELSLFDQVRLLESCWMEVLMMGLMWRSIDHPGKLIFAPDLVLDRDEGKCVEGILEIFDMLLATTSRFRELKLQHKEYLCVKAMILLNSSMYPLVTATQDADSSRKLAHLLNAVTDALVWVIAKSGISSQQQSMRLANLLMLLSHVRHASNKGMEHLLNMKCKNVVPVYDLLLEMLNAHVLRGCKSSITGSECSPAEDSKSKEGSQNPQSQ
# Experimental conditions: filed as antagonist
# Description: Antagonist activity at ERbeta (unknown origin)
With a cut-off of 40 nM, any Ka strictly below it is called Condition met; any Ka meeting it or above is called Condition not met.

In [3]: df
Out[3]:
                                   compound     assigned_label
0  CC(CN1CCCC2CCCNC21)OCC(=O)N1Nc2cc(O)ccc2C2COc3cc(O)ccc3C21 (stereo unspecified)      Condition met
1  O=C(c1ccc(OCCN2C=Cc3ccccc3C2)cc1)c1c(-c2ccc(O)cc2)oc(=O)c2cc(O)ccc12      Condition met
2  Nc1ccc(-c2c(C(=O)c3ccc(OCCNS(=O)(=O)O)cc3)c3ccc(O)cc3oc2=O)cc1  Condition not met
3  O=C(COCN1CCCCC1)CN1Nc2cc(O)ccc2-c2c1c1ccc(O)cc1oc2=O  Condition not met
4  Cc1cc(N2Nc3c(c(=O)oc4cc(O)ccc34)-c3ccc(O)cc32)ccc1OCCN1CCC=C(C(=O)O)C1      Condition met
5  Cc1cc(C(=O)CNc2c(-c3ccc(O)cc3)c(=O)oc3cc(O)ccc23)ccc1OCCN1CCC=C(C(=O)O)C1  Condition not met
6  CNCCOc1ccc(N2Nc3c(c(=O)oc4cc(O)ccc34)-c3ccc(O)cc32)cc1      Condition met
7  O=C(c1ccc(OCCN2CCCCC2)cc1)c1c(-c2ccc(O)cc2)sc2cc(O)ccc12  Condition not met
8  O=C(c1ccc(OCCN2C(=O)CCC2=O)cc1)c1c(-c2ccc(O)cc2)oc(=O)c2cc(O)ccc12      Condition met
9  O=C(COCN1CCCCC1)CN1Nc2c(c(=O)oc3cc(O)ccc23)-c2ccc(O)cc21      Condition met
